assay target: CCR2 (Homo sapiens, UniProt P41597)
Construct: host or cells: THP-1 cells
Sequence (P41597 1-360 isoform P41597-2): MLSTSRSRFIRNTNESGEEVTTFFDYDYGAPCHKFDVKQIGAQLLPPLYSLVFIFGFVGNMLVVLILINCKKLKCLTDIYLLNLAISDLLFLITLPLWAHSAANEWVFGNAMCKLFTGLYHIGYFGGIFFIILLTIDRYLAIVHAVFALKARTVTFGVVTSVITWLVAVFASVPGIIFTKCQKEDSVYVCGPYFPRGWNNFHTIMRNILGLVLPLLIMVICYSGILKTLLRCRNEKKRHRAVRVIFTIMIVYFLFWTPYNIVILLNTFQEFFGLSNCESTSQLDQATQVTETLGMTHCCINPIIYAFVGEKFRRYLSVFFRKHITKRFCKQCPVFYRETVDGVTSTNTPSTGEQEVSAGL
assay procedure: MCP-1 Receptor Binding Assay in THP-1 Cells
run conditions: THP-1 cells, 0.5 nM 125I labeled MCP-1, 2 hours at 30° C.; read-out: Inhibition of MCP-1 Binding IC50
pIC50: −log10 of the molar value.
Quick rule: pIC50 of at least 6 means True, below that means False.

Completed entries (count: 5):
1) O=C(/C=C/c1ccc(Cl)c(Cl)c1)N1CCC(C(O)CN2CCC(c3c[nH]c4ccccc34)CC2)CC1 (stereo not shown)    True
2) OC(CN1CCC(c2c[nH]c3ccccc23)CC1)C1CCN(C(=S)Nc2cccc(Br)c2)CC1 (stereo not shown)    True
3) N#Cc1ccc2[nH]cc(C3CCN(CC(O)C4(O)CCN(c5nccc(C(F)(F)F)n5)CC4)CC3)c2c1 (stereo not shown)    False
4) O=C(/C=C/c1cc(F)cc(F)c1)N1CCC(CC(CO)N2CCC(c3c[nH]c4ccccc34)CC2)CC1 (stereo not shown)    False
5) O=C(/C=C/c1cc(F)c(F)c(F)c1)N1CCC(O)(C(O)CN2CCC(c3ccc(F)cc3)CC2)CC1 (stereo not shown)    True

Textbook exercise: given the entry COc1ccc(C2CCN(CC(O)C3CCN(C(=S)Nc4ccc(Cl)c(Cl)c4)CC3)CC2)cc1 (stereo not shown) , state whether its pIC50 is greater than or equal to 6.
True

---

assay target: CCR2 (Homo sapiens, UniProt P41597)
assay procedure: MCP-1 Receptor Binding Assay in THP-1 Cells
run conditions: THP-1 cells, 0.5 nM 125I labeled MCP-1, 2 hours at 30° C.; read-out: Inhibition of MCP-1 Binding IC50
pIC50: −log10 of the molar value.
Quick rule: pIC50 of at least 6 means condition met, below that means condition not met.

Completed entries (count: 3):
1. COc1ccc(C2CCN(CC(CO)C3CCN(C(=O)Nc4ccc(Cl)c(Cl)c4)CC3)CC2)cc1 (stereo not shown)    condition not met
2. COc1ccc(C2CCN(CC(O)C3CCN(C(=S)Nc4cc(OC)cc(OC)c4)CC3)CC2)cc1 (stereo not shown)    condition not met
3. O=C(/C=C/c1cc(F)c(F)c(F)c1)N1CCC(O)(C(O)CN2CCC(c3c[nH]c4ccccc34)CC2)CC1 (stereo not shown)    condition met

Textbook exercise: given the entry O=C(Nc1cc(F)ccc1Cl)N1CCC(O)(C(O)CN2CCC(c3c[nH]c4ccc(F)cc34)CC2)CC1 (stereo not shown) , state whether its pIC50 is greater than or equal to 6.
condition not met

Textbook exercise: given the entry O=C(/C=C/c1cc(F)c(F)c(F)c1)N1CCC(O)(C(O)CN2CCC(c3ccc(C(F)(F)F)cc3)CC2)CC1 (stereo not shown) , state whether its pIC50 is greater than or equal to 6.
condition met

Textbook exercise: given the entry O=C(/C=C/c1ccc(Cl)c(Cl)c1)N1CCC(CC(CO)N2CCC(c3c[nH]c4ccccc34)CC2)CC1 (stereo not shown) , state whether its pIC50 is greater than or equal to 6.
condition not met

---

assay target: CCR2 (Homo sapiens, UniProt P41597)
Construct: host or cells: THP-1 cells
assay procedure: MCP-1 Receptor Binding Assay in THP-1 Cells
run conditions: THP-1 cells, 0.5 nM 125I labeled MCP-1, 2 hours at 30° C.; read-out: Inhibition of MCP-1 Binding IC50
Mark each entry yes (1) if its IC50 sits below 800 nM, and no (0) for all others.

Record OC(CN1CCC(c2ccc(F)cc2)CC1)C1(O)CCN(C(=S)Nc2ccc(Cl)c(Cl)c2)CC1 (centres unmarked) : is its IC50 strictly below 800 nM?
yes (1)

Record O=C(/C=C/c1cc(Cl)cc(Cl)c1)N1CCC(O)(C(O)CN2CCC(c3c[nH]c4ccc(N5CCOCC5)cc34)CC2)CC1 (centres unmarked) : is its IC50 strictly below 800 nM?
yes (1)

Record O=C(/C=C/c1cc(F)cc(F)c1)N1CCC(C(O)CN2CCC(c3cc[nH]n3)CC2)CC1 (centres unmarked) : is its IC50 strictly below 800 nM?
yes (1)

Record O=C(Nc1ccc(Cl)c(Cl)c1)N1CCC(CC(CO)N2CCC(c3c[nH]c4ccccc34)CC2)CC1 (centres unmarked) : is its IC50 strictly below 800 nM?
no (0)

Record O=C(Nc1ccc(Cl)c(Cl)c1)N1CCC(C(O)CN2CCC(c3cc[nH]n3)CC2)CC1 (centres unmarked) : is its IC50 strictly below 800 nM?
no (0)

Record O=C(/C=C/c1ccc(F)cc1)N1CCC(O)(C(O)CN2CCC(c3c[nH]c4ccc(N5CCOCC5)cc34)CC2)CC1 (centres unmarked) : is its IC50 strictly below 800 nM?
no (0)

Record COc1ccc(C2CCN(CC(=O)C3CCN(C(=O)/C=C/c4cc(F)c(F)c(F)c4)CC3)CC2)cc1 : is its IC50 strictly below 800 nM?
no (0)

---

System: MCP-1 induced chemotaxis of THP-1 cells
assay procedure: MCP-1 Induced Chemotaxis in THP-1 Cells
Type: cell-based
run conditions: Homo sapiens, MCP-1 0.01 μg/mL, 3 hours at 37° C., read-out: Inhibition of MCP-1 Induced Chemotaxis IC50
assay readout: pIC50
Give only the number. pIC50 is defined as minus log10 of concentration in molar units.

Answered cases to consult:
1. O=C(/C=C/c1cc(F)c(F)c(F)c1)N1CCC(C(O)CN2CCC(c3c[nH]c4ncccc34)CC2)CC1 (stereo not shown)    7.70
2. Cc1cccc(/C=C/C(=O)N2CCC(C(O)CN3CCC(c4c[nH]c5ccccc45)CC3)CC2)c1 (stereo not shown)    6.72
3. O=C(Nc1ccc(Cl)c(Cl)c1)N1CCC(O)(C(O)CN2CCC(c3ccc(Cl)cc3)CC2)CC1 (stereo not shown)    6.92
4. COc1ccc(C2CCN(CC(N)C3CCN(C(=O)/C=C/c4cc(F)c(F)c(F)c4)CC3)CC2)cc1 (stereo not shown)    6.60
5. O=C(/C=C/c1ccc(F)c(F)c1)N1CCC(O)(C(O)CN2CCC(c3c[nH]c4ccc(F)cc34)CC2)CC1 (stereo not shown)    6.44

Name the reported pIC50 value associated with the compound O=C(/C=C/c1ccc(Cl)c(Cl)c1)N1CCC(C(O)CN2CCC(c3nc4ccccc4[nH]3)CC2)CC1 (stereo not shown)
7.40

Name the reported pIC50 value associated with the compound O=C(O)C(CC1CCN(C(=O)C=Cc2ccc(Cl)c(Cl)c2)CC1)N1CCC(c2c[nH]c3ccccc23)CC1 (stereo not shown)
6.54

---

assay target: CCR2 (Homo sapiens)
assay procedure: MCP-1 Receptor Binding Assay in THP-1 Cells
run conditions: THP-1 cells, 0.5 nM 125I labeled MCP-1, 2 hours at 30° C.; read-out: Inhibition of MCP-1 Binding IC50
Entries annotated with measured IC50
Enter your answer as a number in nM; do not include the unit.

1. COc1ccc(C2CCN(CC(O)C3(O)CCN(C(=O)/C=C/c4ccsc4)CC3)CC2)cc1 (stereo not shown)    1600
2. COc1ccc(C2CCN(CC(O)C3CCN(C(=O)/C=C/c4cc(F)c(F)c(F)c4)CC3)CC2)cc1 (stereo not shown)    10
3. O=C(/C=C/c1cc(F)c(F)c(F)c1)N1CCC(O)(C(O)CN2CCC(c3c[nH]c4ccc(F)cc34)CC2)CC1 (stereo not shown)    100
4. COC(=O)NC(CN1CCC(c2ccc(OC)cc2)CC1)C1CCN(C(=O)C=Cc2cc(F)c(F)c(F)c2)CC1 (stereo not shown)    240

Which measured IC50 belongs to O=C(/C=C/c1ccc(Cl)c(Cl)c1)N1CCC(O)(C(O)CN2CCC(c3ccc(F)cc3)CC2)CC1 (stereo not shown) , tested on CCR2 (Homo sapiens)?
180

Which measured IC50 belongs to O=C(CN1CCC(c2c[nH]c3ncccc23)CC1)C1CCN(C(=O)/C=C/c2cc(F)c(F)c(F)c2)CC1 , tested on CCR2 (Homo sapiens)?
9400

Which measured IC50 belongs to O=C(/C=C/c1cc(F)c(F)c(F)c1)N1CCC(C(O)CN2CCC(c3cc[nH]n3)CC2)CC1 (stereo not shown) , tested on CCR2 (Homo sapiens)?
1200

---

System: MCP-1 induced chemotaxis of THP-1 cells
assay procedure: MCP-1 Induced Chemotaxis in THP-1 Cells
Assay type: cell-based
run conditions: Homo sapiens, MCP-1 0.01 μg/mL, 3 hours at 37° C., read-out: Inhibition of MCP-1 Induced Chemotaxis IC50
assay readout: IC50 (nM)
Enter your answer as a number in nM; do not include the unit.

Answered cases to consult:
1) O=C(Nc1ccc(Cl)c(Cl)c1)N1CCC(C(O)CN2CCC(c3c[nH]c4ncccc34)CC2)CC1 (centres unmarked) [Compound 24]    70
2) O=C(/C=C/c1cc(F)c(F)c(F)c1)N1CCC(O)(C(O)CN2CCC(c3c[nH]c4ccccc34)CC2)CC1 (centres unmarked) [Compound 70]    10
3) O=C(/C=C/c1ccc(F)c(F)c1)N1CCC(O)(C(O)CN2CCC(c3c[nH]c4ccccc34)CC2)CC1 (centres unmarked) [Compound 78]    210

Name the reported IC50 value associated with the compound Cc1cccc(/C=C/C(=O)N2CCC(C(O)CN3CCC(c4c[nH]c5ncccc45)CC3)CC2)c1 (centres unmarked) [Compound 19]
190
